Below: a set of entries, each annotated with reported pIC50.
- Tested on: 1205 Lu melanoma cells
- Experiment: MTS cell viability assay, 1205 Lu melanoma cells
- Format: cell-based, human
- Experimental Context: Homo sapiens, 1205Lu, 72 h, 72 hours treatment, read-out: Melanoma cell killing efficacy (IC50 values) 1205 Lu (Melanoma cells)
pIC50: −log10 of the molar value.
Measure: pIC50

{"Molecule": "CC(C)C1=CC2=CCC3[C@](C)(CN)CCC[C@]3(C)C2CC1 (some centres unmarked)", "Qualifying Sign": "=", "Observed Value": 5.54}
{"Molecule": "CC(C)c1ccc2c(c1)CCC1[C@](C)(CNC(=O)c3ccccc3)CCC[C@]21C (some centres unmarked)", "Qualifying Sign": "<", "Observed Value": 4.00}
{"Molecule": "CC(C)c1ccc2c(c1)CCC1[C@](C)(CNC(c3ccccc3)(c3ccccc3)c3ccccc3)CCC[C@]21C (some centres unmarked)", "Qualifying Sign": "<", "Observed Value": 4.00}
{"Molecule": "CCN(CC)C(=O)[C@]1(C)CCC[C@]2(C)C3CCC(C(C)C)=CC3=CCC21 (some centres unmarked)", "Qualifying Sign": "<", "Observed Value": 4.00}
{"Molecule": "CC(C)c1ccc2c(c1)CCC1[C@](C)(CNC(=O)C(Br)(Br)Br)CCC[C@]21C (some centres unmarked)", "Qualifying Sign": "=", "Observed Value": 5.74}

====

- System: UACC 903 melanoma cells
- Experiment: MTS cell viability assay, UACC 903 melanoma cells
- Assay type: cell-based, human
- Experimental Context: Homo sapiens, UACC-903, 72 h, 72 hours treatment, read-out: Melanoma cell killing efficacy (IC50 values) UACC 903 (Melanoma cells)
- Description: Dr. Craig Myers, Penn State College of Medicine, Hershey, PA provided normal human fibroblast cell line FF2441. […] Cell lines were maintained in a 37°C humidified 5% CO2 atmosphere incubator and periodically monitored for phenotypic, genotypic characteristics, and tumorigenic potential to validate and confirm cell line identity. […]
pIC50: −log10 of the molar value.
Below: a set of entries, each annotated with reported pIC50.

{"Molecule": "CC(C)C1=CC2=CCC3[C@](C)(CCC[C@@]3(C)C(N)=O)C2CC1 (some centres unmarked)", "Qualifying Sign": "=", "pIC50": 4.15}
{"Molecule": "CCN(CC)C[C@]1(C)CCC[C@]2(C)C3CCC(C(C)C)=CC3=CCC12 (some centres unmarked)", "Qualifying Sign": "=", "pIC50": 4.61}
{"Molecule": "CC(C)c1ccc2c(c1)CCC1[C@](C)(CNC(c3ccccc3)(c3ccccc3)c3ccccc3)CCC[C@]21C (some centres unmarked)", "Qualifying Sign": "<", "pIC50": 4.00}
{"Molecule": "CNC[C@]1(C)CCC[C@]2(C)C3CCC(C(C)C)=CC3=CCC12 (some centres unmarked)", "Qualifying Sign": "=", "pIC50": 5.64}
{"Molecule": "CC(C)C1=CC2=CC[C@@H]3[C@](C)(CCC[C@@]3(C)C(=O)O)[C@H]2CC1 [Abietic acid, reference compound]", "Qualifying Sign": "<", "pIC50": 4.00}

====

- System: UACC 903 melanoma cells
- Experiment: MTS cell viability assay, UACC 903 melanoma cells
- Format: cell-based, human
- Experimental Context: Homo sapiens, UACC-903, 72 h, 72 hours treatment, read-out: Melanoma cell killing efficacy (IC50 values) UACC 903 (Melanoma cells)
pIC50: −log10 of the molar value.

{"Compound": "CC(C)c1ccc2c(c1)CCC1[C@](C)(CNC(=O)C(Br)(Br)Br)CCC[C@]21C (stereo partly shown) [5b]", "Qualifying Sign": "=", "pIC50": 6.00}
{"Compound": "CC(C)c1ccc2c(c1)CCC1[C@](C)(CNCc3ccccc3)CCC[C@]21C (stereo partly shown) [5e]", "Qualifying Sign": "=", "pIC50": 5.22}
{"Compound": "CNC(=O)[C@]1(C)CCC[C@]2(C)C3CCC(C(C)C)=CC3=CCC21 (stereo partly shown) [3b]", "Qualifying Sign": "<", "pIC50": 4.00}
{"Compound": "CC(C)c1ccc2c(c1)CCC1C(C)(CN)CCCC21C (stereo not shown) [Leelamine]", "Qualifying Sign": "=", "pIC50": 5.87}

====

- Experiment: Pharmacokinetics of leelamine in the serum of mice
- Type: in vivo
- Experimental Context: mouse, serum; 80 mg/kg oral, Swiss Webster mice, LC-MS/MS; read-out: time of maximum concentration in serum

{"Molecule": "CC(C)c1ccc2c(c1)CCC1C(C)(CN)CCCC21C (stereo not shown)", "Tmax [h]": 6}

====

Below: a set of entries, each annotated with reported pIC50.
- System: UACC 903 melanoma cells
- Experiment: MTS cell viability assay, UACC 903 melanoma cells
- Assay type: cell-based, human
- Experimental Context: Homo sapiens, UACC-903, 72 h, 72 hours treatment, read-out: Melanoma cell killing efficacy (IC50 values) UACC 903 (Melanoma cells)
pIC50: −log10 of the molar value.

{"Compound": "CC(=O)NC[C@]1(C)CCC[C@]2(C)c3ccc(C(C)C)cc3CCC12 (some centres unmarked)", "Subject Of Test": "UACC 903 melanoma cells", "Qualifying Sign": "=", "pIC50": 4.05}
{"Compound": "CC(C)C1=CC2=CCC3[C@](C)(CN)CCC[C@]3(C)C2CC1 (some centres unmarked)", "Subject Of Test": "UACC 903 melanoma cells", "Qualifying Sign": "=", "pIC50": 5.68}
{"Compound": "CC(C)c1ccc2c(c1)CCC1[C@](C)(CNC(=O)C(F)(F)F)CCC[C@]21C (some centres unmarked)", "Subject Of Test": "UACC 903 melanoma cells", "Qualifying Sign": "=", "pIC50": 5.92}
{"Compound": "CC(C)c1ccc2c(c1)CCC1[C@](C)(CNC(=O)c3ccccc3)CCC[C@]21C (some centres unmarked)", "Subject Of Test": "UACC 903 melanoma cells", "Qualifying Sign": "<", "pIC50": 4.00}
{"Compound": "CCN(CC)C(=O)[C@]1(C)CCC[C@]2(C)C3CCC(C(C)C)=CC3=CCC21 (some centres unmarked)", "Subject Of Test": "UACC 903 melanoma cells", "Qualifying Sign": "<", "pIC50": 4.00}

====

- System: 1205 Lu melanoma cells
- Experiment: MTS cell viability assay, 1205 Lu melanoma cells
- Type: cell-based, human
- Experimental Context: 72 hours treatment, read-out: Melanoma cell killing efficacy (IC50 values) 1205 Lu (Melanoma cells)
pIC50: −log10 of the molar value.
Measure: pIC50

{"Compound": "CC(C)c1ccc2c(c1)CCC1[C@](C)(CNCc3ccccc3)CCC[C@]21C (stereo partly shown) [5e]", "Observed Value": 5.15}

====

- System: 1205 Lu melanoma cells
- Experiment: MTS cell viability assay, 1205 Lu melanoma cells
- Type: cell-based, human
- Experimental Context: Homo sapiens, 1205Lu, 72 h, 72 hours treatment, read-out: Melanoma cell killing efficacy (IC50 values) 1205 Lu (Melanoma cells)
pIC50: −log10 of the molar value.

{"Compound": "CC(C)c1ccc2c(c1)CCC1[C@](C)(CNCc3ccccc3)CCC[C@]21C (stereo partly drawn)", "Qualifying Sign": "=", "pIC50": 5.15}
{"Compound": "CNC(=O)[C@]1(C)CCC[C@]2(C)C3CCC(C(C)C)=CC3=CCC21 (stereo partly drawn)", "Qualifying Sign": "<", "pIC50": 4.00}
{"Compound": "CC(C)C1=CC2=CC[C@@H]3[C@](C)(CCC[C@@]3(C)C(=O)O)[C@H]2CC1 [Abietic acid, reference compound]", "Qualifying Sign": "<", "pIC50": 4.00}
{"Compound": "CNC[C@]1(C)CCC[C@]2(C)C3CCC(C(C)C)=CC3=CCC12 (stereo partly drawn)", "Qualifying Sign": "=", "pIC50": 5.64}
{"Compound": "CC(C)c1ccc2c(c1)CCC1[C@](C)(CNC(=O)C(F)(F)F)CCC[C@]21C (stereo partly drawn)", "Qualifying Sign": "=", "pIC50": 5.70}
{"Compound": "CCN(CC)C[C@]1(C)CCC[C@]2(C)C3CCC(C(C)C)=CC3=CCC12 (stereo partly drawn)", "Qualifying Sign": "=", "pIC50": 4.61}
{"Compound": "CC(C)C1=CC2=CCC3[C@](C)(CCC[C@@]3(C)C(N)=O)C2CC1 (stereo partly drawn)", "Qualifying Sign": "=", "pIC50": 4.09}
{"Compound": "CC(=O)NC[C@]1(C)CCC[C@]2(C)c3ccc(C(C)C)cc3CCC12 (stereo partly drawn)", "Qualifying Sign": "<", "pIC50": 4.00}
{"Compound": "CC(C)c1ccc2c(c1)CCC1C(C)(CN)CCCC21C (stereo not drawn)", "Qualifying Sign": "=", "pIC50": 5.71}
